Catalogue of pIC50 values
- system.name: human PrCP (Homo sapiens (Human), UniProt P42785)
- Sequence (P42785 46-496): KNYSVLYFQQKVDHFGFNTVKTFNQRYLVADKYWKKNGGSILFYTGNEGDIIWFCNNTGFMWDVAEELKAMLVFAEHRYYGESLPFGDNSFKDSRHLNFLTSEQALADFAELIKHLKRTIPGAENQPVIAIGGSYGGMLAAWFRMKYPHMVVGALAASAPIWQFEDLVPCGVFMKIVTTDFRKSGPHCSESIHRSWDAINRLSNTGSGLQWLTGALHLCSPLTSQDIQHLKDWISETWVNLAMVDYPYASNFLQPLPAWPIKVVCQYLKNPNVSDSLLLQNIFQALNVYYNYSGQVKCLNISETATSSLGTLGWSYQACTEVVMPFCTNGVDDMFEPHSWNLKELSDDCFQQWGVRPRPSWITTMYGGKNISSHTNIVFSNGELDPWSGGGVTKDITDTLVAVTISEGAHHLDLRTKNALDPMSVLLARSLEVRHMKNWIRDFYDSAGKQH
- assay.remarks: Prolylcarboxypeptidase (PRCP) enzyme activity assay, fluorescence intensity kinetic assay
- run.conditions: recombinant human PrCP (CHO), 15 uM substrate, pH 5.5, 37° C.
Scale: negative log10 of molar concentration, which is what pIC50 denotes.

Worked examples follow.
{"compound": "OC(CN1CCC(c2cc(-c3ccc(Cl)cc3)nn2-c2ncccn2)CC1)c1ccccc1 (centres unmarked)", "endpoint.result": 9.51}
{"compound": "Fc1ccc(-c2nc(C3C4CN(CCc5ccccc5)CC43)n(-c3ncccn3)n2)cc1 (centres unmarked)", "endpoint.result": 7.54}
{"compound": "Clc1ccc(-c2cc(C3CCN(CCc4ccccc4)CC3)nn2-c2ccncn2)cc1", "endpoint.result": 7.42}

Prompt line: Name the recorded pIC50 for CS(=O)(=O)N1CCC(N2CCC(c3cc(-c4ccc(Cl)cc4)nn3-c3ccccc3)CC2)C1 (centres unmarked) .
Response line: 7.68

Prompt line: Quick check: pIC50 of O=C(O)C(CN1CCC(c2cc(-c3ccc(F)cc3)nn2-c2ncccn2)CC1)c1ccccc1 (centres unmarked) ?
Response line: 9.29

Prompt line: So what's the measured pIC50 for this one? "Clc1ccc(-c2cc(C3CCN(CCc4ccccc4)CC3)n(-c3ncccn3)n2)cc1"
Response line: 10.29

Prompt line: Consider the compound shown here: "CCn1nc(-c2ccc(Cl)cc2)cc1C1CCN(CCc2ccccc2)CC1" What is its recorded pIC50?
Response line: 7.50

Prompt line: Bench note: what pIC50 did "O=S(=O)(c1ccc(N2CCC(c3cc(-c4ccc(Cl)cc4)nn3-c3ncccn3)CC2)nc1)N1CCOCC1" show?
Response line: 7.10

Prompt line: What pIC50 value was documented for this compound, "O=C(Cc1ccccc1C(F)(F)F)N1CCC(c2cc(-c3ccc(F)cc3)nn2-c2ncccn2)CC1" ?
Response line: 8.89

Prompt line: Consider the compound COC(=O)C(CN1CCC(c2cc(-c3ccc(F)cc3)nn2-c2ncccn2)CC1)c1ccccc1 (centres unmarked) and give its measured pIC50.
Response line: 10.46

Prompt line: Please give the measured pIC50 for this compound: "CO[C@@H](CN1CCC(c2nc(-c3ccc(F)cc3)nn2-c2ncccn2)CC1)c1ccccc1"
Response line: 8.59
